Entries with their measured Ki, system human 5-HT5A receptor (Homo sapiens):

Observe how each entry below is paired with its result.
NC(N)=NC(=O)c1ccc2scc(-c3ccccc3)c2c1 = 3 to 30 nM
NC(N)=NC(=O)c1ccc2c(c1)C(c1cccc(C(F)(F)F)c1)=CCO2 = 3 to 30 nM
COc1cc2c(cc1C(=O)N=C(N)N)C(c1c(F)cc(F)cc1F)=CCO2 = 0.3 to 3 nM

Query :: Name the recorded Ki for COc1ccccc1-c1csc2ccc(C(=O)N=C(N)N)cc12 .
Result :: 0.3 to 3 nM

Query :: Name the recorded Ki for NC(N)=NC(=O)c1ccc2c(c1)C(c1cccc(O)c1)=CCC2 .
Result :: 0.3 to 3 nM

Query :: Name the recorded Ki for NC(N)=NC(=O)c1ccc2c(c1)C(c1cccnc1Cl)=CCC2 .
Result :: 3 to 30 nM

Query :: Name the recorded Ki for NC(N)=NC(=O)c1ccc2c(c1)C(c1ccccc1)=CCCC2 .
Result :: 30 to 300 nM

Query :: Name the recorded Ki for COc1ccccc1C1=CCOc2c(F)cc(C(=O)N=C(N)N)cc21 .
Result :: 3 to 30 nM
